// reported inhibition at 10 µM per item
# experimental_system: UniProt:Q15562
# Sequence (Q15562 whole entry): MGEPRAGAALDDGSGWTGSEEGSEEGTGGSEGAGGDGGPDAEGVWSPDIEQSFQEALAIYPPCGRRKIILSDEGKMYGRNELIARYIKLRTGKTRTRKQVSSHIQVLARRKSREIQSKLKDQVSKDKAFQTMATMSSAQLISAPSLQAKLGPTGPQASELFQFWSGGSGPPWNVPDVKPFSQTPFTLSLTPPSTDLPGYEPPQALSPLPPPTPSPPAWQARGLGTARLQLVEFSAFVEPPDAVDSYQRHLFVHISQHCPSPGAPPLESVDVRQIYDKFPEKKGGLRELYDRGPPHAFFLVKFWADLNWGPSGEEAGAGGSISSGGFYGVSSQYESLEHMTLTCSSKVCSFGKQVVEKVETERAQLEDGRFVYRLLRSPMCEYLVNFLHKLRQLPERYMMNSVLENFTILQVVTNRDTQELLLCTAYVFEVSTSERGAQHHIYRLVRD
# method_summary: In vitro palmitoylation (TEAD2 autopalmitoylation, streptavidin blot)
# Type: biochemical
# reported_conditions: compound at 10 μM; Table 2
Only the number, expressed in %, is required.

Consider the following illustrative entries.
> print(dat)
                                   compound  measured.number
1  CN(c1ccc(N2CCN(c3ccc(C45CC6CC(CC(C6)C4)C5)cc3)CC2)cc1)c1ccccc1C(=O)O [Compound 218]                0
2  O=C(O)c1cc(C(F)(F)F)ccc1Nc1cc(Nc2ccc(C34CC5CC(CC(C5)C3)C4)cc2)cc(C(F)(F)F)c1 [Compound 29]               90
3  O=C(O)/C=C/c1ccccc1Nc1ccc(Nc2ccc(C34CC5CC(CC(C5)C3)C4)cc2)cc1 [Compound 245]               87
4  O=C(O)c1cccnc1CN1CCC(Nc2ccc(C34CC5CC(CC(C5)C3)C4)cc2Cl)C1 (stereo not shown) [Compound 137]               99

# input compound: CCCCN(c1ccccc1)c1ccc(Nc2ccc(Nc3ncccc3C(=O)O)cc2)cc1 [Compound 255] ; wanted: its inhibition at 10 µM
50

# input compound: O=C(O)c1cccc(Nc2ccc(Nc3ccc(C45CC6CC(CC(C6)C4)C5)cc3Cl)cc2)n1 [Compound 90] ; wanted: its inhibition at 10 µM
98

# input compound: NC1(C(=O)Nc2ccc(Nc3ccc(C45CC6CC(CC(C6)C4)C5)cc3Cl)cc2)CC1 [compound 280] ; wanted: its inhibition at 10 µM
17
